Test: Saturation solubility by external standard HPLC method
Assay type: physicochemical
Settings: thermodynamic from solid; purified water, 25° C., stirred 24 h
Where a name gives a salt, the structure may show the parent alone.
Assay Readout: solubility at 24 h

INSERT INTO assay_data (compound, observed) VALUES
  ('[2H]C(N)(C(=O)O[C@@H]1CC[C@@]2(C)[C@@H](CC[C@@H]3[C@@H]2CC[C@]2(C)[C@@H](C(C)=O)CC[C@@H]32)C1)C(C)C (some centres unmarked) [Compound 3 hydrochloride]', '19 mg/mL'),
  ('CC(=O)[C@H]1CC[C@H]2[C@@H]3CC[C@H]4C[C@H](O)CC[C@]4(C)[C@H]3CC[C@]12C [Allopregnanolone, 3α-OH-5α-pregnan-20-one]', '< 0.01 mg/mL'),
  ('[2H]C(C)(C)[C@H](N)C(=O)O[C@@H]1CC[C@@]2(C)[C@@H](CC[C@@H]3[C@@H]2CC[C@]2(C)[C@@H](C(C)=O)CC[C@@H]32)C1 [Compound 1 hydrochloride]', '31.2 mg/mL'),
  ('[2H]C([2H])([2H])C([C@H](N)C(=O)O[C@@H]1CC[C@@]2(C)[C@@H](CC[C@@H]3[C@@H]2CC[C@]2(C)[C@@H](C(C)=O)CC[C@@H]32)C1)C([2H])([2H])[2H] [Compound 2 hydrochloride]', '36.1 mg/mL'),
  ('CC(=O)[C@H]1CC[C@H]2[C@@H]3CC[C@H]4C[C@H](OC(=O)[C@@H](N)C(C)C)CC[C@]4(C)[C@H]3CC[C@]12C [Comparative compound 1 hydrochloride]', '29.9 mg/mL');
